Data origin: patent US20260365653A1

Reported log10 of IC50 values are given for each entry in this list.
assayed target: mutEGFR (D770_N771insNPG, T790) (Homo sapiens, UniProt P00533, INS770NPG/T790M)
Construct: exact insNPG construct not described; in-house EGFR proteins were N-terminal GST fusions from baculovirus/insect cells (borders R669-A1210 given only for WT, insSVD, insASV)
Sequence (P00533 with tags, fused parts or gaps INS770NPG/T790M limits assumed): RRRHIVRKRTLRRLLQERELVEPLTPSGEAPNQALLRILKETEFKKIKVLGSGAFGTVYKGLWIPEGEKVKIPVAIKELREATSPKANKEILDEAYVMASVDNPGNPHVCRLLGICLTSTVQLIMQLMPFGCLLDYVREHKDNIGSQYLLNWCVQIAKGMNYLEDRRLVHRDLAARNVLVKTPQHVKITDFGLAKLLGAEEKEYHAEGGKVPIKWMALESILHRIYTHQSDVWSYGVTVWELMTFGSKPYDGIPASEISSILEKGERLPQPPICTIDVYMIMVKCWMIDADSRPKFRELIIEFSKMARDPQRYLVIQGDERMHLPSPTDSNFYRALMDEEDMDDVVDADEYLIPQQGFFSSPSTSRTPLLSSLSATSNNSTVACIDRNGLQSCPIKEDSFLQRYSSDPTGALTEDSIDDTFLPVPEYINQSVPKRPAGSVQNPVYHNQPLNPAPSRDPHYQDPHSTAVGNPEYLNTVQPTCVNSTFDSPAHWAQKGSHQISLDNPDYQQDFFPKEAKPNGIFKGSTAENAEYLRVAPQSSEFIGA
assay notes: mutEGFR (D770_N771insNPG, T790) kinase assay
Assay type: biochemical
condition description: Table 2a, D770_N771insNPG
Would you kindly interpret these values as log10 of IC50 expressed in nM?

Worked examples, 5 compounds total:
                                   compound  quantitative_readout
0  C=CC(=O)N1CCn2nc(-c3ccc(OC)cc3)c(-c3ccncc3)c2C1                  0.51
1  C=CC(=O)N1Cc2c(-c3ccncc3)c(-c3ccc(F)cc3)nn2C(C)(C)C1                  0.35
2  C=CC(=O)N1CCn2nc(-c3ccc(C#N)cc3)c(-c3ccncc3)c2C1                  1.27
3  C[C@@H]1Cn2nc(-c3ccc(Cl)cc3)c(-c3ccncc3)c2CN1C(=O)/C=C/CN(C)C                 -0.69
4  C=CC(=O)N1CCn2nc(-c3ccc(Cl)cc3CO)c(-c3ccncc3)c2C1                  0.10

Ask | Query: log10 of IC50; subject: `C=CC(=O)N1CCn2nc(Nc3ccccc3)c(-c3ccncc3)c2C1`
Reply | 1.02

Ask | Item: CC1Cn2nc(-c3ccc4ccsc4c3)c(-c3ccncc3)c2CN1C(=O)/C=C/CN(C)C (racemic)
Reply | -0.54

Ask | Item: CC1Cn2nc(-c3ccc(Cl)cc3F)c(-c3ccncc3)c2CN1C(=O)/C=C/CN(C)C (racemic)
Reply | -0.23

Ask | Item: `CN(C)C/C=C/C(=O)N1CCn2nc(-c3ccccc3F)c(-c3ccncc3)c2C1`
Reply | 1.00

Ask | Item: CC1c2c(-c3ccncc3)c(-c3ccc(Cl)cc3F)nn2CCN1C(=O)/C=C/CN(C)C (single isomer, unassigned; isomer 2) [Example 286]
Reply | 1.98

Ask | Item: C=CC(=O)N1Cc2c(-c3ccncc3)c(-c3ccc(F)cc3)nn2C(CCO)C1 (stereo not shown)
Reply | 0.10

Ask | Item: C=CC(=O)N1Cc2c(-c3ccncc3)c(-c3ccc(F)cc3)nn2C(CO)C1 (racemic)
Reply | 0.15

Ask | Item: `CN(C)C/C=C/C(=O)N1CCn2nc(-c3ccc(C(F)(F)F)cc3F)c(-c3ccncc3)c2C1`
Reply | 0.66
